This listing pairs molecules with measured melting point.

Worked examples, 5 molecules total:
>  <query_smiles>
CC(C)(C)OC(=O)NCc1ccc(Nc2ncnc3[nH]cc(C(=O)c4ccccc4)c23)cc1

>  <melting point>
256 to 258 °C

$$$$
>  <query_smiles>
CCNC(=O)Nc1cccc(Nc2ncnc3[nH]cc(C(=O)c4ccccc4)c23)c1

>  <melting point>
183 to 185 °C

$$$$
>  <query_smiles>
CCOC(=O)c1cccc(Nc2ncnc3[nH]cc(C(=O)c4ccccc4)c23)c1

>  <melting point>
256 to 258 °C

$$$$
>  <query_smiles>
O=C(Nc1ccc(Nc2ncnc3[nH]cc(C(=O)c4ccccc4)c23)cc1)c1ccccc1

>  <melting point>
> 300 °C

$$$$
>  <query_smiles>
O=C(NCC1CCCCC1)Nc1cccc(Nc2ncnc3[nH]cc(C(=O)c4ccccc4)c23)c1

>  <melting point>
180 to 182 °C

$$$$

Request the reported melting point associated with Nc1cccc(Nc2ncnc3[nH]cc(C(=O)c4ccccc4)c23)n1 > 300 °C

Request: O=C(c1ccccc1)c1c[nH]c2ncnc(Nc3cccc(CO)c3)c12 273 to 275 °C

====

target: ACK1 (110-489) (Homo sapiens, UniProt Q07912); construct: ACK1 110-489 (12.5 μl) were added to each well; experiment: ACK1 Activity Assay (AlphaScreen, PYK2-derived peptide); type: biochemical; settings: Average of ACK1(110-489), IC50, AlphaScreen (Pyk2); read-out: ACK1 (110-489) IC50
Sequence (Q07912 110-489, species assumed): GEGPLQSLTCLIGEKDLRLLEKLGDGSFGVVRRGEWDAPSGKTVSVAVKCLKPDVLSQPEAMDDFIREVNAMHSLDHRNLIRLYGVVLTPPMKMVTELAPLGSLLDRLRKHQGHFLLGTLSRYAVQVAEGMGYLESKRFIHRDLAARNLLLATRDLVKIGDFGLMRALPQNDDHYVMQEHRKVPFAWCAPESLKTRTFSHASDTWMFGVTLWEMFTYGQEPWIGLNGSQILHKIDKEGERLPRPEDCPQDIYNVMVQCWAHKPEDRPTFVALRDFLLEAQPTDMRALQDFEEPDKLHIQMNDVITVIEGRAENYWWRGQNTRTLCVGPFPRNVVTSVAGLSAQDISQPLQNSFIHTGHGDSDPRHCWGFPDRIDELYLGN
quantity_measured: pIC50
Bear in mind: pIC50 is minus log10 of a mol/L concentration; give just that figure.

>  <molecule>
O=C(CCc1cccnc1)Nc1ccc(Nc2ncnc3[nH]cc(C(=O)c4ccccc4)c23)cc1

>  <quantity_measured>
pIC50

>  <recorded_value>
5.36

$$$$
>  <molecule>
COC(=O)c1cc(NC(=O)CNC(C)=O)cc(Nc2ncnc3[nH]cc(C(=O)c4ccccc4)c23)c1 [drawing 277]

>  <quantity_measured>
pIC50

>  <recorded_value>
5.70

$$$$
>  <molecule>
CC(=O)Nc1cccc(Nc2ncnc3[nH]cc(C(=O)c4ccccc4C)c23)c1 [drawing 243]

>  <quantity_measured>
pIC50

>  <recorded_value>
5.90

$$$$
>  <molecule>
CNC(=O)c1cccc(Nc2ncnc3[nH]cc(C(=O)c4ccccc4C)c23)c1 [drawing 242]

>  <quantity_measured>
pIC50

>  <recorded_value>
6.72

$$$$

Request the reported pIC50 associated with O=C(Cn1ccnc1)Nc1ccc(Nc2ncnc3[nH]cc(C(=O)c4ccccc4)c23)cc1 6.10

Request: COc1ccc(Nc2ncnc3[nH]cc(C(=O)c4ccccc4)c23)c(OC)c1 5.34

Request: COCc1ccc(CC(=O)Nc2ccc(Nc3ncnc4[nH]cc(C(=O)c5ccccc5)c34)cc2)cc1 4.16

Request: O=C(c1ccccc1)c1c[nH]c2ncnc(Nc3cccc(CO)c3)c12 [drawing 276] 6.62

Request: CC(=O)NCCC(=O)Nc1ccc(Nc2ncnc3[nH]cc(C(=O)c4ccccc4)c23)cc1 6.11

====

This listing pairs compounds with measured melting point.

>  <query_smiles>
CC(=O)Nc1cccc(Nc2ncnc3[nH]cc(C(=O)c4cccc(F)c4)c23)c1

>  <melting point>
> 300 °C

$$$$
>  <query_smiles>
NCc1ccc(Nc2ncnc3[nH]cc(C(=O)c4ccccc4)c23)cc1

>  <melting point>
255 to 257 °C

$$$$
>  <query_smiles>
CNC(=O)c1cccc(Nc2ncnc3[nH]cc(C(=O)c4cccc(F)c4)c23)c1

>  <melting point>
> 300 °C

$$$$
>  <query_smiles>
O=C(c1ccccc1)c1c[nH]c2ncnc(Nc3cccc(CCO)c3)c12

>  <melting point>
> 300 °C

$$$$
>  <query_smiles>
O=C(Nc1ccccc1)Nc1cccc(Nc2ncnc3[nH]cc(C(=O)c4ccccc4)c23)c1

>  <melting point>
> 300 °C

$$$$

Request the reported melting point associated with O=C(Nc1ccccc1)c1cccc(Nc2ncnc3[nH]cc(C(=O)c4ccccc4)c23)c1 > 300 °C

Request: O=C(NCCCN1CCCCC1)c1cccc(Nc2ncnc3[nH]cc(C(=O)c4ccccc4)c23)c1 > 300 °C

Request: CC(C)(C)OC(=O)Nc1cccc(Nc2ncnc3[nH]cc(C(=O)c4ccccc4)c23)c1 288 to 290 °C

Request: CC(=O)Nc1cccc(Nc2ncnc3[nH]cc(C(=O)c4ccccc4C)c23)c1 > 300 °C

Request: CC(C)(C)OC(=O)NCc1cccc(Nc2ncnc3[nH]cc(C(=O)c4ccccc4)c23)c1 210 to 212 °C

Request: CNC(=O)c1cccc(Nc2ncnc3[nH]cc(C(=O)c4ccc(Cl)cc4)c23)c1 > 300 °C

Request: CNC(=O)c1cccc(Nc2ncnc3[nH]cc(C(=O)c4ccccc4C)c23)c1 > 300 °C

Request: Cn1cc(C(=O)c2ccccc2)c2c(Nc3cccc(N)c3)ncnc21 170 to 173 °C

Request: O=C(Nc1cccc(Nc2ncnc3[nH]cc(C(=O)c4ccccc4)c23)c1)c1ccccc1 > 300 °C

Request: CNC(=O)c1cccc(Nc2ncnc3[nH]cc(C(=O)c4cccc5ccccc45)c23)c1 > 300 °C

====

target: ACK1 (110-489) (Homo sapiens); construct: ACK1 110-489 (12.5 μl) were added to each well; assay: ACK1 Activity Assay (AlphaScreen, PYK2-derived peptide); type: biochemical
This listing pairs compounds with measured IC50.
Please respond with the number in nM and leave the unit unwritten.

>  <compound>
CC(=O)NCC(=O)Nc1cccc(Nc2ncnc3[nH]cc(C(=O)c4ccccc4)c23)c1

>  <unit_spec>
nM

>  <IC50>
666

$$$$
>  <compound>
Nc1cccc(Nc2ncnc3[nH]cc(C(=O)c4ccccc4)c23)c1 [drawing 248]

>  <unit_spec>
nM

>  <IC50>
415

$$$$
>  <compound>
Nc1ccc(Nc2ncnc3[nH]cc(C(=O)c4ccccc4)c23)cc1

>  <unit_spec>
nM

>  <IC50>
338

$$$$
>  <compound>
NC(=O)CCC(=O)Nc1cccc(Nc2ncnc3[nH]cc(C(=O)c4ccccc4)c23)c1

>  <unit_spec>
nM

>  <IC50>
876

$$$$
>  <compound>
O=C(CCc1cccnc1)Nc1cccc(Nc2ncnc3[nH]cc(C(=O)c4ccccc4)c23)c1

>  <unit_spec>
nM

>  <IC50>
1070

$$$$
>  <compound>
O=C(NCCCCN1CCCC1)c1cccc(Nc2ncnc3[nH]cc(C(=O)c4ccccc4)c23)c1

>  <unit_spec>
nM

>  <IC50>
2170

$$$$
>  <compound>
CN(C)CCCNC(=O)c1cccc(Nc2ncnc3[nH]cc(C(=O)c4ccccc4)c23)c1

>  <unit_spec>
nM

>  <IC50>
486

$$$$
>  <compound>
O=C(Nc1cccc(Nc2ncnc3[nH]cc(C(=O)c4ccccc4)c23)c1)c1ccc(Cl)cc1

>  <unit_spec>
nM

>  <IC50>
15700

$$$$

ACK1 (110-489) (Homo sapiens) / IC50 / O=C(NCCCN1CCCC1)c1cccc(Nc2ncnc3[nH]cc(C(=O)c4ccccc4)c23)c1 : value? 1200

Request: CN1CCC(NC(=O)c2cccc(Nc3ncnc4[nH]cc(C(=O)c5ccccc5)c34)c2)CC1 592

Request: O=C(O)c1cccc(Nc2ncnc3[nH]cc(C(=O)c4ccccc4)c23)c1 2190

Request: CN(C)CC(=O)Nc1cccc(Nc2ncnc3[nH]cc(C(=O)c4ccccc4)c23)c1 672

Request: CC(=O)NCCC(=O)Nc1cccc(Nc2ncnc3[nH]cc(C(=O)c4ccccc4)c23)c1 1340

Request: O=C(c1ccccc1)c1c[nH]c2ncnc(Nc3cccc(NC(=O)C4CCCC4)c3)c12 19000

Request: CC(=O)Nc1cccc(Nc2ncnc3[nH]cc(C(=O)c4ccccc4)c23)c1 3870

====

This listing pairs molecules with measured pIC50.
molecular target: ACK1 (110-489) (Homo sapiens); construct: ACK1 110-489 (12.5 μl) were added to each well; experiment: ACK1 Activity Assay (AlphaScreen, PYK2-derived peptide); assay type: biochemical; conditions: Average of ACK1(110-489), IC50, AlphaScreen (Pyk2); read-out: ACK1 (110-489) IC50
Bear in mind: pIC50 is minus log10 of a mol/L concentration; give just that figure.

>  <molecule>
CC(C)(C)NC(=O)Nc1cccc(Nc2ncnc3[nH]cc(C(=O)c4ccccc4)c23)c1 [drawing 274]

>  <pIC50>
5.18

$$$$

ACK1 (110-489) (Homo sapiens) / pIC50 / O=C(Cc1cncc(Br)c1)Nc1cccc(Nc2ncnc3[nH]cc(C(=O)c4ccccc4)c23)c1 [drawing 251] : value? 5.83

Request: O=C(Nc1ccccc1)Nc1cccc(Nc2ncnc3[nH]cc(C(=O)c4ccccc4)c23)c1 [drawing 260] 4.55

Request: Cc1cccc(Nc2ncnc3[nH]cc(C(=O)c4ccccc4)c23)c1 4.26
